Data provenance is patent US20250235545A1.

# System: sarcoma SJSA-1 tumor model
# test: Efficacy in animal model of sarcoma SJSA-1, 30 mg/kg once a week for two weeks (Example 40)
# Assay type: in vivo, BALB/c mice
# experimental.setup: 30 mg/kg once a week for two weeks; Day 10
Where a SMILES comes first, the peptide text is derived from it. The star is where a group is joined. NEt(2-(20S-CPT-7-yl)ethyl) = CCN(CCc1c2c(nc3ccccc13)-c1cc3c(c(=O)n1C2)COC(=O)[C@]3(O)CC)*; X6 = CCCCCN(CCc1c2c(nc3ccccc13)-c1cc3c(c(=O)n1C2)COC(=O)[C@]3(O)CC)*; X2 = CCCCN(CCc1c2c(nc3ccccc13)-c1cc3c(c(=O)n1C2)COC(=O)[C@]3(O)CC)*; X4 = CCCN(CCc1c2c(nc3ccccc13)-c1cc3c(c(=O)n1C2)COC(=O)[C@]3(O)CC)*; X5 = CC[C@@]1(O)C(=O)OCc2c1cc1n(c2=O)Cc2c-1nc1ccccc1c2CCN(CC(C)C)*; Propanoyl(3-maleimido) = O=C1C=CC(=O)N1CCC(=O)*; PEG6 = NCCOCCOCCOCCOCCOCCOCCC(=O)O
measured.endpoint: SJSA-1 (sarcoma tissue) mean tumor volume (mm^3) Day 10
Your answer should be a plain number; it is taken to be in mm^3.

Can you share its SJSA-1 (sarcoma tissue) mean tumor volume (mm^3) Day 10? I mean this compound: CC[C@@]1(O)C(=O)OCc2c1cc1n(c2=O)Cc2c-1nc1ccccc1c2CCN(CC(C)C)C(=O)[C@H](CC(C)C)NC(=O)[C@H](CC(N)=O)NC(=O)[C@H](C)NC(=O)[C@H](C)NC(=O)CCOCCOCCOCCOCCOCCOCCNC(=O)CCN1C(=O)C=CC1=O [MI-6PEG-AANL-D5] ({Propanoyl(3-maleimido)-PEG6}-AANL-X5)
876.45

Can you check CCCN(CCc1c2c(nc3ccccc13)-c1cc3c(c(=O)n1C2)COC(=O)[C@]3(O)CC)C(=O)CNC(=O)[C@H](CC(N)=O)NC(=O)[C@H](C)NC(=O)[C@H](C)NC(=O)CCOCCOCCOCCOCCOCCOCCNC(=O)CCN1C(=O)C=CC1=O [MI-6PEG-AANG-D3] ({Propanoyl(3-maleimido)-PEG6}-AANG-X4) next?
833.76

Can you check CCCCCN(CCc1c2c(nc3ccccc13)-c1cc3c(c(=O)n1C2)COC(=O)[C@]3(O)CC)C(=O)CNC(=O)[C@H](CC(N)=O)NC(=O)[C@H](C)NC(=O)[C@H](C)NC(=O)CCOCCOCCOCCOCCOCCOCCNC(=O)CCN1C(=O)C=CC1=O [MI-6PEG-AANG-D4] ({Propanoyl(3-maleimido)-PEG6}-AANG-X6) next?
847.33

Can you check CCCCN(CCc1c2c(nc3ccccc13)-c1cc3c(c(=O)n1C2)COC(=O)[C@]3(O)CC)C(=O)[C@H](CC(C)C)NC(=O)[C@H](CC(N)=O)NC(=O)[C@H](C)NC(=O)[C@H](C)NC(=O)CCOCCOCCOCCOCCOCCOCCNC(=O)CCN1C(=O)C=CC1=O [MI-6PEG-AANL-D4] ({Propanoyl(3-maleimido)-PEG6}-AANL-X2) next?
1068.21

Can you check CCN(CCc1c2c(nc3ccccc13)-c1cc3c(c(=O)n1C2)COC(=O)[C@]3(O)CC)C(=O)[C@H](CC(C)C)NC(=O)[C@H](CC(N)=O)NC(=O)[C@H](C)NC(=O)[C@H](C)NC(=O)CCOCCOCCOCCOCCOCCOCCNC(=O)CCN1C(=O)C=CC1=O [MI-6PEG-AANL-D2] ({Propanoyl(3-maleimido)-PEG6}-AANL-{NEt(2-(20S-CPT-7-yl)ethyl)}) next?
1320.55
